# System: 695427-040-R-J1-PDC complex spheroid viability
# assay.comment: Anticancer human tumor 695427-040-R-J1-PDC patient-derived colon adenocarcinoma cell line growth inhibition [POLQ]
# settings: second compound 0.0316 µM; first compound 3.16 µM; hits give low values
Reported values of viability, T/C for individual entries
observation.type: viability, T/C (%)

{"columns": ["molecule", "assay.system", "observation.type", "units.label", "reading"],
 "data": [
  ["C=CC(=O)N1CCN(c2nc(=O)n(-c3c(C)ccnc3C(C)C)c3nc(-c4c(O)cccc4F)c(F)cc23)C(C)C1 (stereo not given) + COC1C(OC(N)=O)C(O)C(Oc2ccc3c(O)c(NC(=O)c4ccc(O)c(CC=C(C)C)c4)c(=O)oc3c2C)OC1(C)C", "695427-040-R-J1-PDC complex spheroid viability", "viability, T/C", "%", 113],
  ["CC1COCCN1c1cc(C2(S(C)(=N)=O)CC2)nc(-c2ccnc3[nH]ccc23)n1 (stereo not given) + Cc1cccc(N(C)C(=O)C2C(O)CCN2c2nc(C)cc(C(F)(F)F)c2C#N)c1", "695427-040-R-J1-PDC complex spheroid viability", "viability, T/C", "%", 101],
  ["CC1COCCN1c1cc(C2(S(C)(=N)=O)CC2)nc(-c2ccnc3[nH]ccc23)n1 (stereo not given) + COC1C(OC(N)=O)C(O)C(Oc2ccc3c(O)c(NC(=O)c4ccc(O)c(CC=C(C)C)c4)c(=O)oc3c2C)OC1(C)C", "695427-040-R-J1-PDC complex spheroid viability", "viability, T/C", "%", 93.9],
  ["CCc1cc2c(N3CCc4c(cc(Cn5ccnc5)cc4-c4cn(C)nc4C(F)(F)F)C3=O)ccnc2c(OC)n1 + Cc1cccc(N(C)C(=O)C2C(O)CCN2c2nc(C)cc(C(F)(F)F)c2C#N)c1", "695427-040-R-J1-PDC complex spheroid viability", "viability, T/C", "%", 105],
  ["CNCc1ccc(-c2[nH]c3cc(F)cc4c3c2CCNC4=O)cc1 + Nc1ccc(C#CCN(C(=O)Cc2ncc(C(F)(F)F)cc2C(F)(F)F)c2ccc(F)cc2)nn1", "695427-040-R-J1-PDC complex spheroid viability", "viability, T/C", "%", 110]
]}

----------
Reported values of viability, T/C for individual entries
# Tested on: 695427-040-R-J1-PDC complex spheroid viability
# assay.comment: Anticancer human tumor 695427-040-R-J1-PDC cell line growth inhibition [POLQ];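 note: spheroids exposed to compounds for seven days; 100% = DMSO vehicle control viability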
# settings: second compound 0.1 µM; first compound 1 µM; hits give low values

{"columns": ["molecule", "units.label", "viability, T/C"],
 "data": [
  ["C#Cc1c(F)ccc2cc(O)cc(-c3ncc4c(N5CC6CCC(C5)N6)nc(OCC56CCCN5CC(F)C6)nc4c3F)c12 (stereo not drawn) + Cc1cccc(N(C)C(=O)C2C(O)CCN2c2nc(C)cc(C(F)(F)F)c2C#N)c1", "%", 96],
  ["CCCS(=O)(=O)Nc1ccc(F)c(C(=O)c2c[nH]c3ncc(-c4ccc(Cl)cc4)cc23)c1F + Nc1ccc(C#CCN(C(=O)Cc2ncc(C(F)(F)F)cc2C(F)(F)F)c2ccc(F)cc2)nn1", "%", 106],
  ["CCc1cc2c(N3CCc4c(cc(Cn5ccnc5)cc4-c4cn(C)nc4C(F)(F)F)C3=O)ccnc2c(OC)n1 + Cc1cccc(N(C)C(=O)C2C(O)CCN2c2nc(C)cc(C(F)(F)F)c2C#N)c1", "%", 103]
]}

----------
Reported values of viability, T/C for individual entries
# Test system: 695427-040-R-J1-PDC complex spheroid viability
# assay.comment: Anticancer human tumor 695427-040-R-J1-PDC cell line growth inhibition [POLQ];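 note: spheroids exposed to compounds for seven days; 100% = DMSO vehicle control viability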
# settings: second compound 0.316 µM; first compound 0.316 µM; hits give low values
observation.type: viability, T/C (%)

{"columns": ["molecule", "observation.type", "units.label", "reading"],
 "data": [
  ["Nc1ccn(C2OC(CO)C(O)C2(F)F)c(=O)n1 (stereo unspecified) + Nc1ccc(C#CCN(C(=O)Cc2ncc(C(F)(F)F)cc2C(F)(F)F)c2ccc(F)cc2)nn1", "viability, T/C", "%", 75.9],
  ["O=C(c1cc(Cc2n[nH]c(=O)c3ccccc23)ccc1F)N1CCN(C(=O)C2CC2)CC1 + Cc1cccc(N(C)C(=O)C2C(O)CCN2c2nc(C)cc(C(F)(F)F)c2C#N)c1", "viability, T/C", "%", 99],
  ["CC1COCCN1c1cc(-c2ccnn2C)c2ccnc(-c3ccn[nH]3)c2n1 (stereo unspecified) + Nc1ccc(C#CCN(C(=O)Cc2ncc(C(F)(F)F)cc2C(F)(F)F)c2ccc(F)cc2)nn1", "viability, T/C", "%", 71],
  ["CCCS(=O)(=O)Nc1ccc(F)c(C(=O)c2c[nH]c3ncc(-c4ccc(Cl)cc4)cc23)c1F + COC1C(OC(N)=O)C(O)C(Oc2ccc3c(O)c(NC(=O)c4ccc(O)c(CC=C(C)C)c4)c(=O)oc3c2C)OC1(C)C", "viability, T/C", "%", 97],
  ["CC1COCCN1c1cc(C2(S(C)(=N)=O)CC2)nc(-c2ccnc3[nH]ccc23)n1 (stereo unspecified) + Nc1ccc(C#CCN(C(=O)Cc2ncc(C(F)(F)F)cc2C(F)(F)F)c2ccc(F)cc2)nn1", "viability, T/C", "%", 93.9],
  ["CCc1cc2c(N3CCc4c(cc(Cn5ccnc5)cc4-c4cn(C)nc4C(F)(F)F)C3=O)cc(C)nc2c(OC)n1 + Nc1ccc(C#CCN(C(=O)Cc2ncc(C(F)(F)F)cc2C(F)(F)F)c2ccc(F)cc2)nn1", "viability, T/C", "%", 99.9],
  ["CC1COCCN1c1cc(-c2ccnn2C)c2ccnc(-c3ccn[nH]3)c2n1 (stereo unspecified) + COC1C(OC(N)=O)C(O)C(Oc2ccc3c(O)c(NC(=O)c4ccc(O)c(CC=C(C)C)c4)c(=O)oc3c2C)OC1(C)C", "viability, T/C", "%", 61.4],
  ["O=C(c1cc(Cc2n[nH]c(=O)c3ccccc23)ccc1F)N1CCN(C(=O)C2CC2)CC1 + COC1C(OC(N)=O)C(O)C(Oc2ccc3c(O)c(NC(=O)c4ccc(O)c(CC=C(C)C)c4)c(=O)oc3c2C)OC1(C)C", "viability, T/C", "%", 105],
  ["CNCc1ccc(-c2[nH]c3cc(F)cc4c3c2CCNC4=O)cc1 + Cc1cccc(N(C)C(=O)C2C(O)CCN2c2nc(C)cc(C(F)(F)F)c2C#N)c1", "viability, T/C", "%", 104],
  ["COc1cccc2c1C(=O)c1c(O)c3c(c(O)c1C2=O)CC(O)(C(=O)CO)CC3OC1CC(N)C(O)C(C)O1 (stereo unspecified) + Cc1cccc(N(C)C(=O)C2C(O)CCN2c2nc(C)cc(C(F)(F)F)c2C#N)c1", "viability, T/C", "%", 89.1],
  ["C=CCn1c(=O)c2cnc(Nc3ccc(N4CCN(C)CC4)cc3)nc2n1-c1cccc(C(C)(C)O)n1 + COC1C(OC(N)=O)C(O)C(Oc2ccc3c(O)c(NC(=O)c4ccc(O)c(CC=C(C)C)c4)c(=O)oc3c2C)OC1(C)C", "viability, T/C", "%", 91.8]
]}

----------
Reported values of viability, T/C for individual entries
# Tested on: 695427-040-R-J1-PDC complex spheroid viability
# assay.comment: Anticancer human tumor 695427-040-R-J1-PDC cell line growth inhibition [POLQ];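 note: spheroids exposed to compounds for seven days; 100% = DMSO vehicle control viability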
# settings: second compound 0.316 µM; first compound 0.000316 µM; hits give low values

{"columns": ["molecule", "viability, T/C"],
 "data": [
  ["Cn1ncnc1[C@H]1c2n[nH]c(=O)c3cc(F)cc(c23)N[C@@H]1c1ccc(F)cc1 + Nc1ccc(C#CCN(C(=O)Cc2ncc(C(F)(F)F)cc2C(F)(F)F)c2ccc(F)cc2)nn1", "110%"],
  ["Cn1ncnc1[C@H]1c2n[nH]c(=O)c3cc(F)cc(c23)N[C@@H]1c1ccc(F)cc1 + Cc1cccc(N(C)C(=O)C2C(O)CCN2c2nc(C)cc(C(F)(F)F)c2C#N)c1", "102%"],
  ["Cn1ncnc1[C@H]1c2n[nH]c(=O)c3cc(F)cc(c23)N[C@@H]1c1ccc(F)cc1 + COC1C(OC(N)=O)C(O)C(Oc2ccc3c(O)c(NC(=O)c4ccc(O)c(CC=C(C)C)c4)c(=O)oc3c2C)OC1(C)C", "106%"],
  ["CC[C@@]1(O)C(=O)OCc2c1cc1n(c2=O)Cc2cc3c(CN(C)C)c(O)ccc3nc2-1 + Cc1cccc(N(C)C(=O)C2C(O)CCN2c2nc(C)cc(C(F)(F)F)c2C#N)c1", "99.1%"],
  ["CC[C@@]1(O)C(=O)OCc2c1cc1n(c2=O)Cc2cc3c(CN(C)C)c(O)ccc3nc2-1 + Nc1ccc(C#CCN(C(=O)Cc2ncc(C(F)(F)F)cc2C(F)(F)F)c2ccc(F)cc2)nn1", "109%"],
  ["CC[C@@]1(O)C(=O)OCc2c1cc1n(c2=O)Cc2cc3c(CN(C)C)c(O)ccc3nc2-1 + COC1C(OC(N)=O)C(O)C(Oc2ccc3c(O)c(NC(=O)c4ccc(O)c(CC=C(C)C)c4)c(=O)oc3c2C)OC1(C)C", "102%"]
]}
